biological target: T1, cynomolgus monkey CD3 on the surface of expanded monkey T cells (cynomolgus monkey, UniProt Q95LI5 22-198; Q95LI8 22-171; Q95LI7 23-181); test: FACS, expanded monkey T cells
T1 construct: whole, on cells; Endogenous CD3 within the TCR-CD3 complex on T cells expanded from cynomolgus monkey PBMC
T1 sequence (Q95LI5 22-198, chain 1 of 3): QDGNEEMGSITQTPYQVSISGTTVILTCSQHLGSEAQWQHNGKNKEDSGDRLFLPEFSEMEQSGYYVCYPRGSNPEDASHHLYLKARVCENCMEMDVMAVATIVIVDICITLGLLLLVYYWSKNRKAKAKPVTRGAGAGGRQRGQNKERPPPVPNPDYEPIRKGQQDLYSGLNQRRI
T1 sequence (Q95LI8 22-171, chain 2 of 3): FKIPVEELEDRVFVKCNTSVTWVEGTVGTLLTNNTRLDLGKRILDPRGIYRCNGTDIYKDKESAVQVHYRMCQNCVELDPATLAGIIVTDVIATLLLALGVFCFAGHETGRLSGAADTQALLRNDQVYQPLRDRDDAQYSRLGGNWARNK
T1 sequence (Q95LI7 23-181, chain 3 of 3): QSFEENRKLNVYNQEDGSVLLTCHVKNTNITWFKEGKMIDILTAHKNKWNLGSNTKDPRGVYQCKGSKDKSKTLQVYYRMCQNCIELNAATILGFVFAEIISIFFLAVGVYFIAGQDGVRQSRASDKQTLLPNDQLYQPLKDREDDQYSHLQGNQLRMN
PARAMETER: max_MFI (MFI)
Answer format: numeric, MFI implied, no suffix.

Summary for this binder, 8-18.1-H1-L2 humanized antibody (antibody, human IgG1, kappa, V domains shown) VH: EVQLVQSGAEVKKPGASVKVSCKASGYTFTMNTMHWVRQAPGQRLEWMGYINPYSGYTKYNQIFKDRVTITADKSASTAYMELSSLRSEDTAVYYCLRGGEGVWGQGTTVTVSS VL: DVVMTQSPLSLPVTLGQPASISCKSSQSLLDSDGKTYLNWLQQRPGQSPRRLIYLVSELGSGVPDRFSGSGSGTDFTLKISRVEAEDVGVYYCWQGTHFPRTFGGGTKVEIKR : max_MFI is 11800
